Dear all, I have gathered published pIC50 values for Prostaglandin G/H synthase 2 (Homo sapiens); the list follows.
pIC50: −log10 of the molar value.
Property measured: pIC50

Use these answered entries as a reference point.
C[C@@H]1O[C@@H](O[C@H]2Cc3c(O)cc(O)cc3O[C@@H]2c2ccc(O)cc2)[C@H](O)[C@H](O)[C@H]1O = 4.71
NS(=O)(=O)c1ccc(-n2nc(C(=O)N3CCSCC3)cc2-c2ccc(Br)cc2)cc1 = 5.89

1: COC(=O)/C(=C/c1ccc2ccccc2c1)CSc1nc2ccccc2s1
2: Cc1nc(C2CCCCC2)c(-c2ccc(S(N)(=O)=O)c(N)c2)o1
Problem: // select label with min value of measured pIC50 from [ 1 , 2 ] Mark your selection by writing its label.
Solution: 1
